measured on: PICK1, Q9NRD5
Sequence (Q9NRD5 17-115): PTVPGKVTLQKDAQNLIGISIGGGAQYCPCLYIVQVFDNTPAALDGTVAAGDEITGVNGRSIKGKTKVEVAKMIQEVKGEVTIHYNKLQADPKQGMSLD
experiment description: holdup assay
Design: key: below the threshold = too weak to quantify, mostly under pKd 3.1 to 4
experimental context: plain residues with an end cap or a label only (N-terminal biotin on a linker: ttds)
property measured: pKd

Worked cases, answers included:
# binder, pKd
measured = [
    ("SGSRPSATVV [HPV73-E6, Q82005]", 3.63),
    ("QRQARSETLV [HPV59-E6, Q81964]", 3.85),
    ("SSLQSLETSV [ATP2B4, P23634]", 3.76),
    ("FHPLGADSQV [SLC2A1, P11166]", "below the threshold"),
    ("NDPAWDETNL [ARHGEF7, Q14155;Q14155-1]", "below the threshold"),
    ("PRVKPQRSKV [PPP1R13L, Q8WUF5]", "below the threshold"),
    ("RLQRRRETQV [HPV18-E6, P06463]", "below the threshold"),
]

Next item in the queue.
Record PVRVCEETSL [OTULIN, Q96BN8] , field pKd: below the threshold
